Here the recorded EC 50 (IL-8 release, cross-linked) is given for each entry.
# Test target: T1, CD134 expressed on the cell surface of HT1080_OX40 cells (human, UniProt P43489 29-277)
# T1 sequence (looked up): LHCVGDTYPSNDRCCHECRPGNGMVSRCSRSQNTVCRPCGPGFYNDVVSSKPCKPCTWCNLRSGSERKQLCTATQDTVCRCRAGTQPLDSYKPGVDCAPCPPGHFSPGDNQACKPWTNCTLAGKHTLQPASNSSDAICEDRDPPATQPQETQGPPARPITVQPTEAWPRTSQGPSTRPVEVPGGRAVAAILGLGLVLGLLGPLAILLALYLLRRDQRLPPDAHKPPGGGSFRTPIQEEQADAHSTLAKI
# Assay remarks: cell-based or functional assay
Your answer should be a plain number; it is taken to be in µg/mL.

Solved entries:
{"columns": ["Binder", "EC 50 (IL-8 release, cross-linked) / µg/mL"],
 "data": [
  ["P018.S.04.A.B06 (antibody, V domains shown, V regions on human Ig constant parts; also called AB134_7) VH: QSVEESGGRLVTPGTFLTLTCTVSGFSLSSYAMNWVRQSPGKGLEWIGIIYSDDIAYYASWAKGRFTISKTSTTVTLKMTSLTVADTATYFCARGDGDRSIWSFDLWGPGTLVTVSS VL: AQVLTQTPSPVSAAVGGTVTISCQSSESVWNNNWLAWYQQKPGQPPNLLIYEASTLASGVSSRFKGSGSGTQFTLTVSEVQSDDAATYYCQGGYYDSSPIWTFGGGTEVVVK", 0.461],
  ["P018.S.05.A.F05 (as anti-CD134 antibody) (antibody, V domains shown, V regions on human Ig constant parts; also called AB134_16) VH: QSVEESGGRLVTPGTPLTLTCTVSGFSLSNYYMTWVRQAPGKGLEYIGIIGSGVSTYYANWAKGRFTISKASSTTVDLKMTSPTTEDTATYFCARDMYVGNWGDWGLWGQGTLVTVSS VL: AYDMTQTPASVEVAVGGTVTIKCQASQSISNNLNWYQQKPGQPPKLLIYSVSTLASGVPSRFKGSGSGTDYTLTISGVESVDAATYYCQQDYRIGDLDSAFGGGTEVVVK", 7.12]
]}

## Input Reported EC 50 (IL-8 release, cross-linked) for P018.S.11.A.A05 (antibody, V domains shown, V regions on human Ig constant parts; also called AB134_22) VH: QSVEESGGRLVTPGTPLTLTCTVSGFSLNSYDMSWVRQAPGKGLEWIGFISASGSIYFANWAKGRFTISKTSTTVDLKITSPTTEDTATYFCASDSYGWAYVYYFNLWGPGTLVTVSS VL: AVVLTQTPASVSAAVGGTVTINCRASEDIGSYLGWYQQKPGQPPKLLMHDASDLASGVPSRFSGSGSGTEFTLTISGVQSDDAATYYCQSAWYSSGTDKMAFGGGTEVVVK : what is it?
## Output 0.865
